System: E. coli 31
procedure summary: In vitro antibacterial activity, two-fold agar-plate dilution method (MIC), E. coli 31
Type: cell-based
condition: Escherichia coli, heart infusion agar, 10^6 viable cells per ml, 37° C., 20 hours, read-out: MIC (minimal inhibitory concentration)
# MIC per record follows
readout name: MIC

compound="Cc1c[n+](CC2=C(C(=O)[O-])N3C(=O)[C@@H](NC(=O)/C(=N\\OC(F)F)c4csc(N)n4)[C@H]3SC2)n(C)c1N [Compound D]" target_of_assay="E. coli 31" readout_name=MIC value="≤ 0.025 µg/mL"
compound="Cn1ccc[n+]1CC1=C(C(=O)[O-])N2C(=O)[C@@H](NC(=O)/C(=N\\OC(F)F)c3csc(N)n3)[C@H]2SC1 [Compound A]" target_of_assay="E. coli 31" readout_name=MIC value="< 0.025 µg/mL"
compound="CO/N=C(\\C(=O)N[C@@H]1C(=O)N2C(C(=O)[O-])=C(C[n+]3cc(C)c(N)n3C)CS[C@H]12)c1csc(N)n1 [Compound C]" target_of_assay="E. coli 31" readout_name=MIC value="≤ 0.025 µg/mL"
compound="Cn1ccc[n+]1CC1=C(C(=O)[O-])N2C(=O)[C@@H](NC(=O)/C(=N\\OC3C=CCC3)c3csc(N)n3)[C@H]2SC1 (stereo partly shown) [Compound B]" target_of_assay="E. coli 31" readout_name=MIC value="0.05 µg/mL"

###

// reported MIC for each item listed
Tested on: P. vulgaris IAM1025
procedure summary: In vitro antibacterial activity, two-fold agar-plate dilution method (MIC), P. vulgaris IAM1025
Format: cell-based
condition: Proteus vulgaris, heart infusion agar, 10^6 viable cells per ml, 37° C., 20 hours, read-out: MIC (minimal inhibitory concentration)
readout name: MIC (µg/mL)

compound="Cn1ccc[n+]1CC1=C(C(=O)[O-])N2C(=O)[C@@H](NC(=O)/C(=N\\OC3C=CCC3)c3csc(N)n3)[C@H]2SC1 (stereo partly shown) [Compound B]" target_of_assay="P. vulgaris IAM1025" sign== value=0.05
compound="CO/N=C(\\C(=O)N[C@@H]1C(=O)N2C(C(=O)[O-])=C(C[n+]3cc(C)c(N)n3C)CS[C@H]12)c1csc(N)n1 [Compound C]" target_of_assay="P. vulgaris IAM1025" sign=≤ value=0.025
compound="Cn1ccc[n+]1CC1=C(C(=O)[O-])N2C(=O)[C@@H](NC(=O)/C(=N\\OC(F)F)c3csc(N)n3)[C@H]2SC1 [Compound A]" target_of_assay="P. vulgaris IAM1025" sign== value=0.05
compound="Cc1c[n+](CC2=C(C(=O)[O-])N3C(=O)[C@@H](NC(=O)/C(=N\\OC(F)F)c4csc(N)n4)[C@H]3SC2)n(C)c1N [Compound D]" target_of_assay="P. vulgaris IAM1025" sign=≤ value=0.025
